test: Population pharmacokinetic analysis of 10 clinical studies (Example 7); assay type: in vivo, human; settings: human, plasma, intravenous; final population PK model; read-out: CL, population estimate (converted)
REPORTED_METRIC: clearance
Give your result as the value with the unit written after it.

In: Find the measured clearance of C[C@]1(Cn2ccnn2)[C@H](C(=O)O)N2C(=O)C[C@H]2S1(=O)=O [Tazobactam] and report it.
Out: 300 mL/min

---

assay: Phase 1 single dose PK of 750 mg ceftolozane/tazobactam in severe renal impairment and ESRD on hemodialysis (Example 8); assay type: in vivo, human; conditions: both sexes, human, plasma, iv, 750 mg, ESRD on HD; Day 1 IV infusion of 750 mg (non-hemodialysis phase); read-out: AUC∞, Mean (CV %)
Here the recorded AUC(0-inf) is given for each entry.
Reply numerically in µg·h/mL, unit not repeated.

C[C@]1(Cn2ccnn2)[C@H](C(=O)O)N2C(=O)C[C@H]2S1(=O)=O [Tazobactam]	105

Attention now turns to another entry.
In: Find the measured AUC(0-inf) of Cn1c(N)c(NC(=O)NCCN)c[n+]1CC1=C(C(=O)[O-])N2C(=O)[C@@H](NC(=O)/C(=N\OC(C)(C)C(=O)O)c3nsc(N)n3)[C@H]2SC1 [Ceftolozane] and report it.
Out: 1680

---

test: Phase 1 single dose PK of 750 mg ceftolozane/tazobactam in severe renal impairment and ESRD on hemodialysis (Example 8); format: in vivo, human; settings: both sexes, human, plasma, iv, 750 mg, severe renal impairment; single IV 1-hour infusion of 750 mg ceftolozane/tazobactam; read-out: Vss, Mean (CV %)
Here the recorded Vd is given for each entry.
Reply numerically in L, unit not repeated.

In: Find the measured Vd of Cn1c(N)c(NC(=O)NCCN)c[n+]1CC1=C(C(=O)[O-])N2C(=O)[C@@H](NC(=O)/C(=N\OC(C)(C)C(=O)O)c3nsc(N)n3)[C@H]2SC1 [Ceftolozane] and report it.
Out: 13.8

In: Find the measured Vd of C[C@]1(Cn2ccnn2)[C@H](C(=O)O)N2C(=O)C[C@H]2S1(=O)=O [Tazobactam] and report it.
Out: 16.5

---

Experiment: clinical
Details: human, in vivo
Text: CXA-201 plasma concentrations from 6 subjects with ESRD following a single dose without HD and a second dose with HD were used to develop a pPK model (Phoenix NLME, Pharsight).
Here the recorded clearance is given for each entry.
Reply numerically in mL/min, unit not repeated.

C[C@]1(Cn2ccnn2)[C@H](C(=O)O)N2C(=O)C[C@H]2S1(=O)=O [Tazobactam]	51.2

In: Find the measured clearance of Cn1c(N)c(NC(=O)NCCN)c[n+]1CC1=C(C(=O)[O-])N2C(=O)[C@@H](NC(=O)/C(=N\OC(C)(C)C(=O)O)c3nsc(N)n3)[C@H]2SC1 [Ceftolozane] and report it.
Out: 5.67

---

test: Phase 1 single dose PK of 750 mg ceftolozane/tazobactam in severe renal impairment and ESRD on hemodialysis (Example 8); format: in vivo, human; details: both sexes, human, plasma, intravenous, 750 mg, ESRD on HD; second infusion Day 4; approximately 6 hours from start of infusion to end of dialysis; read-out: AUClast, Mean (CV %)
REPORTED_METRIC: AUC(0-t) (ng·h/mL)
Reply numerically in ng·h/mL, unit not repeated.

Cn1c(N)c(NC(=O)NCCN)c[n+]1CC1=C(C(=O)[O-])N2C(=O)[C@@H](NC(=O)/C(=N\OC(C)(C)C(=O)O)c3nsc(N)n3)[C@H]2SC1 [Ceftolozane]	87500

Attention now turns to another entry.
In: Find the measured AUC(0-t) of C[C@]1(Cn2ccnn2)[C@H](C(=O)O)N2C(=O)C[C@H]2S1(=O)=O [Tazobactam] and report it.
Out: 28800
